# system.name: SMARCA4-HiBiT (Homo sapiens, UniProt P51532)
# Construct: SMARCA4-HiBiT knock-in Hela monoclonal cell (CS3023226); host or cells: HeLa monoclonal knock-in line (CRISPR HiBiT knock-in at the endogenous locus, heterozygous)
# Sequence (P51532 whole entry): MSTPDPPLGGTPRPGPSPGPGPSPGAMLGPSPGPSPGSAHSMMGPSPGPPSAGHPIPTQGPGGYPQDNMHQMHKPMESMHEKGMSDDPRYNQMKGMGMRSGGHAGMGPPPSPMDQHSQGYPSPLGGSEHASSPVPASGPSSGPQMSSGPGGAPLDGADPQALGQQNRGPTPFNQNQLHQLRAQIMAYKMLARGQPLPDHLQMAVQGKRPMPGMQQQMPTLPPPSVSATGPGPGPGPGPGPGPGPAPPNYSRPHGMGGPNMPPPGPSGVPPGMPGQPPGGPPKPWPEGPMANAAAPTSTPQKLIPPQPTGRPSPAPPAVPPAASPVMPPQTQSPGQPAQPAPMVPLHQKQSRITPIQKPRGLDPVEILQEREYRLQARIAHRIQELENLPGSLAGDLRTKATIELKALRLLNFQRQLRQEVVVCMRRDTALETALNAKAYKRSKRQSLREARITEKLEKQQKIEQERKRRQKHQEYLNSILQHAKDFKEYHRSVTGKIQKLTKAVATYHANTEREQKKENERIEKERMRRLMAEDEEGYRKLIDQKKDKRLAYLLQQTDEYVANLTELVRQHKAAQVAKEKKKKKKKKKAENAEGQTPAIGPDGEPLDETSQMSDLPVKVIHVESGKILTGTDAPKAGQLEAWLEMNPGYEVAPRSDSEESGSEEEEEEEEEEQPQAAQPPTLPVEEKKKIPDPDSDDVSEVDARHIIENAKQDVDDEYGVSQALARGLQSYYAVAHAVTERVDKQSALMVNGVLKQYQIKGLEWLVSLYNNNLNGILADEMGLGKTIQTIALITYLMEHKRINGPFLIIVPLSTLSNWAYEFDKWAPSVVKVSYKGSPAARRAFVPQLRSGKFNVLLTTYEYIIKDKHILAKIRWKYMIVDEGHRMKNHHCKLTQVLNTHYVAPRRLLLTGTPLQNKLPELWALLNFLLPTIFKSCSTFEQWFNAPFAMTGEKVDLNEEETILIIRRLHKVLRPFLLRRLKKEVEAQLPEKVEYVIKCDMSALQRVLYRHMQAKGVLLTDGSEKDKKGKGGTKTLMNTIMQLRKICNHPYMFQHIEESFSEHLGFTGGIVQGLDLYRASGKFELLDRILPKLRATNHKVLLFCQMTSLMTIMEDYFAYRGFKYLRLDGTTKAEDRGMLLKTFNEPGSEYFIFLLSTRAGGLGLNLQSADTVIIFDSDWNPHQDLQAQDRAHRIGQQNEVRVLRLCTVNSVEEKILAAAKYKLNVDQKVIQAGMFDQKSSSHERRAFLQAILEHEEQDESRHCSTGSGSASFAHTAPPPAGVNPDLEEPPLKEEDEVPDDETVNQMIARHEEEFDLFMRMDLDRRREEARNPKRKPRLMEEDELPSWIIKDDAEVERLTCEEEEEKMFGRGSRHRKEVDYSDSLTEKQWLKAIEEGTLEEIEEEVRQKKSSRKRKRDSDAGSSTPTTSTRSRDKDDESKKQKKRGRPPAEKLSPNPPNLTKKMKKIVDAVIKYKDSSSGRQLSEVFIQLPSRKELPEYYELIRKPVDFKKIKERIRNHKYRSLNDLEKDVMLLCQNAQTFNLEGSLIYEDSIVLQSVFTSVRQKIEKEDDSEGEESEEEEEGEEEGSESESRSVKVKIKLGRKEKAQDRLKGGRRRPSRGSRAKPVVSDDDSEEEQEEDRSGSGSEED
# assay: SMARCA4 HiBiT degradation assay in HeLa cells
# Format: cell-based
# condition.info: HeLa, 18 hours incubation, read-out: HeLa-HiBit-SM4 Dmax (%)
quantity.kind: Dmax

molecule: CC(CN1CCN2c3cc(-c4ccccc4O)nnc3NC[C@H]2C1)C1CCN(CC2CCN(c3ccc4c(c3)C(=O)N(C3CCC(=O)NC3=O)C4=O)CC2)CC1 (stereo partly shown)
quantity.kind: Dmax
endpoint.value: > 85%
--
molecule: O=C1CCC(N2C(=O)c3ccc(N4CCC(CN5CCC(CCN6CCN7c8cc(-c9ccccc9O)nnc8NC[C@H]7C6)CC5)CC4)cc3C2=O)C(=O)N1 (stereo partly shown)
quantity.kind: Dmax
endpoint.value: > 85%
--
molecule: O=C1CCC(N2Cc3cc(N4CCC(CN5C[C@@H]6[C@H](C5)[C@H]6CN5CCN6c7cc(-c8ccccc8O)nnc7NC[C@H]6C5)CC4)ccc3C2=O)C(=O)N1 (stereo partly shown)
quantity.kind: Dmax
endpoint.value: 75 to 85%
--
molecule: O=C1CCC(N2C(=O)c3ccc(N4CCC(NC5CCC(CN6CCN7c8cc(-c9ccccc9O)nnc8NC[C@H]7C6)CC5)CC4)cc3C2=O)C(=O)N1 (stereo partly shown)
quantity.kind: Dmax
endpoint.value: > 85%
--
molecule: O=C1CCC(N2C(=O)c3ccc(N4CCC(CN5CCC(CN6CCN7c8cc(-c9ccccc9O)nnc8NC[C@H]7C6)CC5)CC4)cc3C2=O)C(=O)N1COP(=O)(O)O (stereo partly shown)
quantity.kind: Dmax
endpoint.value: > 85%

Take each entry in turn and give its Dmax.
1. O=C1CCC(N2C(=O)c3ccc(N4CCC(CNC56CC(CN7CCN8c9cc(-c%10ccccc%10O)nnc9NC[C@H]8C7)(C5)C6)CC4)cc3C2=O)C(=O)N1 (stereo partly shown)
2. O=C1CCC(N2C(=O)c3ccc(N4CCC(CN5CCC(C(=O)N6CCN7c8cc(-c9ccccc9O)nnc8NC[C@H]7C6)CC5)C(F)(F)C4)cc3C2=O)C(=O)N1 (stereo partly shown)
3. C[C@H]1CN2c3cc(-c4ccccc4O)nnc3NC[C@H]2CN1C[C@H]1[C@@H]2CN(CC3CCN(c4ccc5c(c4)CN(C4CCC(=O)NC4=O)C5=O)CC3)C[C@@H]21 (stereo partly shown)
4. CC1CN(CC2CCN(c3ccc4c(c3)C(=O)N(C3CCC(=O)NC3=O)C4=O)CC2)CCC1CN1CCN2c3cc(-c4ccccc4O)nnc3NC[C@H]2C1 (stereo partly shown)
5. CN(CCN1CCC(N2CCN3c4cc(-c5ccccc5O)nnc4NC[C@H]3C2)CC1)c1cccc2c1C(=O)N(C1CCC(=O)NC1=O)C2=O (stereo partly shown)

1: 50 to 75%; 2: 50 to 75%; 3: ≤ 50%; 4: > 85%; 5: > 85%

Take each entry in turn and give its Dmax.
1. O=C1CCC(N2C(=O)c3ccc(N4CCC(N5CCN6c7cc(-c8ccccc8O)nnc7NC[C@H]6C5)C4)cc3C2=O)C(=O)N1 (stereo partly shown)
2. O=C1CCC(N2C(=O)c3ccc(N4CC[C@H](CN5CCC(CN6CCN7c8cc(-c9ccccc9O)nnc8NC[C@H]7C6)CC5)[C@H](F)C4)cc3C2=O)C(=O)N1 (stereo partly shown)

1. 50 to 75%
2. 50 to 75%

Just for reference, patent US12448389B2 is where these values come from.
